- experimental-target: IDO (Homo sapiens)
- protocol-summary: SKOV3 kynurenine cell-based assay (IDO induced by IFN-γ)
- Parameters: IDO expression was induced in the SKOV3 cells by the addition of 500 ng/ml IFN-γ; endogenous in cells; host or cells: SKOV3 (human ovarian adenocarcinoma), induced with IFN-γ
- measurement-context: SKOV3 human ovarian adenocarcinoma cells, 500 ng/ml IFN-γ, 48 hours, 500 μM L-tryptophan; read-out: SKOV3 Kynurenine cell based assay pIC50 (converted)
- Description: Exemplary compounds of the invention were prepared, and tested to determine their effect as TDO and/or IDO inhibitors. […] This coupled enzyme system allowed conversion of N-formylkynurenine produced by TDO or IDO activity to kynurenine which was then quantified by fluorescence following addition of Erhlich's Reagent The protocols for these are set out below. […]
reported-property: IC50

compound	IC50
OC1(c2cc(Cl)cc3[nH]ncc23)CCCC1 [Compound 320]	3.24 to 31.6 µM
CS(=O)(=O)N1CCC(Nc2cccc3[nH]ncc23)CC1 [Compound 75]	> 100 µM
NS(=O)(=O)N1CC2(CCN(c3cc(Cl)cc4[nH]ncc34)CC2)C1 [Compound 367]	3.24 to 31.6 µM
CC(=O)N1CCN(c2cc(Cl)cc3[nH]ncc23)CC1CO (centres unmarked) [Compound 454]	> 100 µM
CCC1CN(c2cc(Cl)cc3[nH]ncc23)CCN1S(C)(=O)=O (centres unmarked) [Compound 83]	3.24 to 31.6 µM
CC(=O)N1CCC(c2cc(C(F)(F)F)cc3[nH]ncc23)CC1(C)C (centres unmarked) [Compound 133]	< 3.16 µM
CC(C)Cn1cc(-c2cc(Cl)cc3[nH]ncc23)cn1 [Compound 396]	> 100 µM
Cn1cc2c(n1)CCN(c1cc(Cl)cc3[nH]ncc13)C2 [Compound 360]	3.24 to 31.6 µM

Please fill in: IC50 reported for CS(=O)(=O)N1CC=C(c2cc(Cl)cc3[nH]ncc23)CC1 [Compound 77] = 3.24 to 31.6 µM

Please fill in: IC50 reported for O=C(N1CCC(c2cc(Cl)cc3[nH]ncc23)CC1)C1(O)CC1 [Compound 195] = 3.24 to 31.6 µM

Please fill in: IC50 reported for CS(=O)(=O)N1CCN(C2CCN(c3cc(Cl)cc4[nH]ncc34)CC2)CC1 [Compound 453] = > 100 µM

Please fill in: IC50 reported for O=C1N[C@H]2CC[C@@H]1CN(c1cc(Cl)cc3[nH]ncc13)C2 [Compound 393] = 32.4 to 100 µM

Please fill in: IC50 reported for CNC(=O)C1CCCN(c2cc(Cl)cc3[nH]ncc23)C1 (centres unmarked) [Compound 210] = 32.4 to 100 µM

Please fill in: IC50 reported for O=C1Nc2ccccc2C12CCN(c1cc(Cl)cc3[nH]ncc13)CC2 [Compound 371] = 3.24 to 31.6 µM

====

- experimental-target: TDO (Homo sapiens, UniProt P48775)
- Sequence (P48775 whole entry): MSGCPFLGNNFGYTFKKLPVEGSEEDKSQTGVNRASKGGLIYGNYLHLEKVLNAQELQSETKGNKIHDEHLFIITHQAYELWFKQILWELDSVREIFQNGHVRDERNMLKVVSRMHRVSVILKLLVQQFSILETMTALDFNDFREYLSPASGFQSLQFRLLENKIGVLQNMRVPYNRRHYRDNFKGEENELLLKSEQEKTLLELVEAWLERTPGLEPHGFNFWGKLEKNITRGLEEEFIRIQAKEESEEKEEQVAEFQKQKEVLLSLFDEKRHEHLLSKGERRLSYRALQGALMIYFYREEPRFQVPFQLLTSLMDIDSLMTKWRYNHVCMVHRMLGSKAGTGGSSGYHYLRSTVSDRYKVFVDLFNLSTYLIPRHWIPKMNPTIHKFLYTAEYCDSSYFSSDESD
- protocol-summary: A172 kynurenine cell-based assay
- Parameters: This assay utilised cancer cells which expressed either TDO or IDO; endogenous in cells; host or cells: A172 (human glioblastoma)
- measurement-context: A172 human glioblastoma cells, 48 hours, 500 μM L-tryptophan; read-out: A172 Kynurenine cell based assay pIC50 (converted)
reported-property: IC50

compound	experimental-target	observed-measurement
O=C1CC2(CCN(c3cc(Cl)cc4[nH]ncc34)CC2)CN1 [Compound 280]	TDO (Homo sapiens, UniProt P48775)	< 3.16 µM

API: the following record is the query input.
Please fill in: IC50 reported for CC(=O)NCC1CCCN(c2cc(Cl)cc3[nH]ncc23)C1 (centres unmarked) [Compound 283] = 3.24 to 31.6 µM

====

- experimental-target: IDO (Homo sapiens, UniProt P14902)
- Sequence (P14902 whole entry): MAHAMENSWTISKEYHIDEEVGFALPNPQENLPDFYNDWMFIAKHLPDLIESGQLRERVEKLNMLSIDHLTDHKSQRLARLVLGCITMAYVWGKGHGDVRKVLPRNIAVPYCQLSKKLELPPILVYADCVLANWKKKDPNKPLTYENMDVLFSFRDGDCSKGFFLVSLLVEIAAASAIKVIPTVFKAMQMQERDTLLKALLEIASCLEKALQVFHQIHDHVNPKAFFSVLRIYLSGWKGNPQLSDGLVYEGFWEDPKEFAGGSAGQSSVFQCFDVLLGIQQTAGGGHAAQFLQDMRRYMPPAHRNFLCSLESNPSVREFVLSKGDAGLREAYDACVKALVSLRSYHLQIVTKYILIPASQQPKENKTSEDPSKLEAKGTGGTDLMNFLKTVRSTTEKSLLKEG
- protocol-summary: hIDO biochemical coupled assay
- measurement-context: 45 μM L-tryptophan, 17 minutes, room temperature; read-out: hIDO biochemical assay pIC50 (converted)
reported-property: IC50

Please fill in: IC50 reported for CS(=O)(=O)NCc1ccc(-c2cc(Cl)cc3[nH]ncc23)cc1 = > 100 µM

Please fill in: IC50 reported for CS(=O)(=O)N1C2COCC1CN(c1cc(Cl)cc3[nH]ncc13)C2 = 32.4 to 100 µM

====

- experimental-target: IDO (Homo sapiens, UniProt P14902)
- protocol-summary: hIDO biochemical coupled assay
- measurement-context: 45 μM L-tryptophan, 17 minutes, room temperature; read-out: hIDO biochemical assay pIC50 (converted)
Form field: IC50 (one value per entry).

compound	experimental-target	IC50
CC(=O)N(C)C1CCN(c2cc(Cl)cc3[nH]ncc23)CC1	IDO (Homo sapiens, UniProt P14902)	< 3.16 µM
CC(C)(C)CC(=O)Nc1cccc2[nH]ncc12	IDO (Homo sapiens, UniProt P14902)	> 100 µM
CN1C(=O)NC(C2CCN(c3cc(Cl)cc4[nH]ncc34)CC2)C1=O (stereo not shown)	IDO (Homo sapiens, UniProt P14902)	> 100 µM

Response field IC50 (IDO (Homo sapiens, UniProt P14902)) for item Cc1nc2c(o1)CN(c1cc(C(F)(F)F)cc3[nH]ncc13)CC2(C)C : > 100 µM

Response field IC50 (IDO (Homo sapiens, UniProt P14902)) for item CC(C)C(O)c1cc(Cl)cc2[nH]ncc12 (stereo not shown) : 3.24 to 31.6 µM

====

- experimental-target: IDO (Homo sapiens, UniProt P14902)
- protocol-summary: hIDO biochemical coupled assay
- measurement-context: 45 μM L-tryptophan, 17 minutes, room temperature; read-out: hIDO biochemical assay pIC50 (converted)
Form field: IC50 (one value per entry).

Completed entries (count: 3):
compound	IC50
CC(=O)N1CCC(c2cccc3[nH]ncc23)CC1	> 100 µM
NC(=O)C1CCN(c2cc(Cl)cc3[nH]ncc23)CC1	< 3.16 µM
Cc1nc2c(o1)CN(c1cc(Cl)cc3[nH]ncc13)CC2(C)C	> 100 µM

Response field IC50 (IDO (Homo sapiens, UniProt P14902)) for item CN(C)C(=O)C1CCN(c2cc(Cl)cc3[nH]ncc23)C1 (centres unmarked) : 3.24 to 31.6 µM

Response field IC50 (IDO (Homo sapiens, UniProt P14902)) for item Cc1nc2c(n1C)CN(c1cc(C(F)(F)F)cc3[nH]ncc13)CC2 : > 100 µM

====

- experimental-target: UniProt P48775
- protocol-summary: A172 kynurenine cell-based assay
- Parameters: This assay utilised cancer cells which expressed either TDO or IDO; endogenous in cells; host or cells: A172 (human glioblastoma)
- measurement-context: A172 human glioblastoma cells, 48 hours, 500 μM L-tryptophan; read-out: A172 Kynurenine cell based assay pIC50 (converted)
reported-property: IC50

Completed entries (count: 4):
compound	IC50
O=C1NCC2(CCN(c3cc(Cl)cc4[nH]ncc34)CC2)O1	< 3.16 µM
Cc1nn(C)c2c1CN(c1cc(Cl)cc3[nH]ncc13)CC2	< 3.16 µM
CS(=O)(=O)N1CCC(Oc2cc(Cl)cc3c2cnn3CCO)CC1	> 100 µM
CN(C)C(=O)CN1CCN(c2cc(Cl)cc3[nH]ncc23)CC1	3.24 to 31.6 µM

Please fill in: IC50 reported for O=C1NC(=O)C2(CCN(c3cc(C(F)(F)F)cc4[nH]ncc34)CC2)N1 = < 3.16 µM

Please fill in: IC50 reported for CC(=O)NC1CCN(c2cc(Cl)cc3[nH]ncc23)CC1 = < 3.16 µM

Please fill in: IC50 reported for CC(O)C(=O)N1CCN(c2cc(Cl)cc3[nH]ncc23)CC1 (stereo not shown) = < 3.16 µM

Please fill in: IC50 reported for O=C1CCCC2(CCN(c3cc(Cl)cc4[nH]ncc34)CC2)N1 = < 3.16 µM

Please fill in: IC50 reported for CS(=O)(=O)N1CCN(c2cc(Br)cc3[nH]ncc23)CC1 = < 3.16 µM

Please fill in: IC50 reported for CS(=O)(=O)NC1CCC(c2cc(Cl)cc3[nH]ncc23)CC1 (stereo not shown) = < 3.16 µM

Please fill in: IC50 reported for CC(=O)N1CCC(c2cc(C3CC3)cc3[nH]ncc23)CC1 = 3.24 to 31.6 µM

Please fill in: IC50 reported for CC(=O)N(C)c1cc(N2CCN(S(C)(=O)=O)CC2)c2cn[nH]c2c1 = 32.4 to 100 µM

Please fill in: IC50 reported for CC(C)Cn1cc(-c2cc(Cl)cc3[nH]ncc23)cn1 = < 3.16 µM

Please fill in: IC50 reported for Clc1cc(-c2cnn(-c3ccccc3)c2)c2cn[nH]c2c1 = < 3.16 µM

Please fill in: IC50 reported for CC(C)(O)C(=O)N1CCN(c2cc(Cl)cc3[nH]ncc23)CC1 = < 3.16 µM

====

Form field: IC50 (one value per entry).
- experimental-target: TDO (Homo sapiens)
- protocol-summary: A172 kynurenine cell-based assay
- Set-up: This assay utilised cancer cells which expressed either TDO or IDO; endogenous in cells; host or cells: A172 (human glioblastoma)
- measurement-context: A172 human glioblastoma cells, 48 hours, 500 μM L-tryptophan; read-out: A172 Kynurenine cell based assay pIC50 (converted)

molecule	experimental-target	IC50
C[C@@H]1CN(c2cc(Cl)cc3[nH]ncc23)C[C@H](C)N1S(C)(=O)=O [Compound 134]	TDO (Homo sapiens)	< 3.16 µM
CC1(C)CN(c2cc(Cl)cc3[nH]ncc23)CCN1CCNS(C)(=O)=O [Compound 420]	TDO (Homo sapiens)	< 3.16 µM
CC(=O)N1CCN(c2cc(C3CCCC3)cc3[nH]ncc23)CC1(C)C [Compound 149]	TDO (Homo sapiens)	3.24 to 31.6 µM
CC(=O)N1CCC(c2cc(C(F)(F)F)cc3[nH]ncc23)CC1(C)C (stereo not drawn) [Compound 133]	TDO (Homo sapiens)	< 3.16 µM
CNc1ccc(-c2cc(Cl)cc3[nH]ncc23)cn1 [Compound 241]	TDO (Homo sapiens)	3.24 to 31.6 µM
CS(=O)(=O)N1CCN(c2cc(C(F)(F)F)cc3[nH]ncc23)c2ccccc21 [Compound 186]	TDO (Homo sapiens)	> 100 µM

Please fill in: IC50 reported for CN1CCN(c2cc(Cl)cc3[nH]ncc23)CC1=O [Compound 332] = < 3.16 µM

Please fill in: IC50 reported for CC(=O)N1CCC2(CC1)CN(c1cc(Cl)cc3[nH]ncc13)C2 [Compound 452] = < 3.16 µM

Please fill in: IC50 reported for CN(C1CCN(c2cc(Cl)cc3[nH]ncc23)C1)S(C)(=O)=O (stereo not drawn) [Compound 243] = < 3.16 µM
